Several reports have described pIC50 for Carbonic anhydrase 1 (Homo sapiens); a selection of those results is presented here.
Note on pIC50: it is the negative log10 of concentration, concentration in mol/L.

Task: Please tell me: pIC50 of O=[N+]([O-])c1ccc(NC(P(=O)(O)O)P(=O)(O)O)cc1 , system Carbonic anhydrase 1 (Homo sapiens)?
Result: 5.10

Task: Please tell me: pIC50 of C[C@@H](NC(=O)P(=O)(O)O)C1CCCCC1 , system Carbonic anhydrase 1 (Homo sapiens)?
Result: 5.17

Task: Please tell me: pIC50 of COc1ccc(-c2ccc(S(=O)(=O)NC(P(=O)(O)O)P(=O)(O)O)cc2)cc1 , system Carbonic anhydrase 1 (Homo sapiens)?
Result: 7.39

Task: Please tell me: pIC50 of O=C(NCCCCNS(=O)(=O)c1ccc(Oc2ccccc2)cc1)P(=O)(O)O , system Carbonic anhydrase 1 (Homo sapiens)?
Result: 6.12

Task: Please tell me: pIC50 of NC(=O)c1c(Nc2ccc(I)cc2F)cc(F)cc1Oc1cccc(NS(N)(=O)=O)c1 , system Carbonic anhydrase 1 (Homo sapiens)?
Result: 5.32

Task: Please tell me: pIC50 of O=P(O)(O)C(Nc1cccc(Br)c1)P(=O)(O)O , system Carbonic anhydrase 1 (Homo sapiens)?
Result: 5.08

Task: Please tell me: pIC50 of CC(=O)Oc1ccccc1C(=O)O , system Carbonic anhydrase 1 (Homo sapiens)?
Result: 2.57

Task: Please tell me: pIC50 of O=P(O)(O)C(NS(=O)(=O)c1ccc(-c2ccc(Cl)cc2)cc1)P(=O)(O)O , system Carbonic anhydrase 1 (Homo sapiens)?
Result: 5.76

Task: Please tell me: pIC50 of COc1ccccc1C(=O)NC(=S)Nc1ccc(S(N)(=O)=O)cc1 , system Carbonic anhydrase 1 (Homo sapiens)?
Result: 6.57

Task: Please tell me: pIC50 of NS(=O)(=O)c1ccc(NC(=S)NC(=O)c2ccc([N+](=O)[O-])cc2)cc1 , system Carbonic anhydrase 1 (Homo sapiens)?
Result: 6.30

Task: Please tell me: pIC50 of COc1ccc(C(=O)NC(=S)Nc2cccc(S(N)(=O)=O)c2)cc1 , system Carbonic anhydrase 1 (Homo sapiens)?
Result: 6.18

----------
Several reports have described pIC50 for Carbonic anhydrase 1 (Homo sapiens); a selection of those results is presented here.
pIC50: −log10 of the molar value.

Task: Please tell me: pIC50 of O=[N+]([O-])c1ccc(-c2ccc(S(=O)(=O)NC(P(=O)(O)O)P(=O)(O)O)cc2)cc1 , system Carbonic anhydrase 1 (Homo sapiens)?
Result: 5.04

Task: Please tell me: pIC50 of O=P(O)(O)C(NS(=O)(=O)c1ccccc1)P(=O)(O)O , system Carbonic anhydrase 1 (Homo sapiens)?
Result: < 5.00

Task: Please tell me: pIC50 of O=P(O)(O)C(Nc1ccc(-c2ccccc2)cc1)P(=O)(O)O , system Carbonic anhydrase 1 (Homo sapiens)?
Result: < 5.00

Task: Please tell me: pIC50 of O=[N+]([O-])c1cccc(S(=O)(=O)NC(P(=O)(O)O)P(=O)(O)O)c1 , system Carbonic anhydrase 1 (Homo sapiens)?
Result: < 5.00

Task: Please tell me: pIC50 of CCCC(C)NS(=O)(=O)c1ccc(C)cc1 (stereo not given) , system Carbonic anhydrase 1 (Homo sapiens)?
Result: < 4.30

Task: Please tell me: pIC50 of Cc1ccc(S(=O)(=O)NCc2ccccc2)cc1 , system Carbonic anhydrase 1 (Homo sapiens)?
Result: < 4.30

Task: Please tell me: pIC50 of CC(=O)c1ccc(S(=O)(=O)Nc2ccccc2)cc1 , system Carbonic anhydrase 1 (Homo sapiens)?
Result: < 4.30

Task: Please tell me: pIC50 of COc1ccc(S(=O)(=O)NC(P(=O)(O)O)P(=O)(O)O)cc1 , system Carbonic anhydrase 1 (Homo sapiens)?
Result: < 5.00

Task: Please tell me: pIC50 of O=P(O)(O)C(NS(=O)(=O)c1ccc(-c2ccccc2)cc1)P(=O)(O)O , system Carbonic anhydrase 1 (Homo sapiens)?
Result: 5.17

Task: Please tell me: pIC50 of Cc1sc(C(=O)c2cncnc2N[C@@H]2C[C@H](COS(N)(=O)=O)[C@@H](O)C2)cc1[C@@H]1NCCc2ccc(Cl)cc21 , system Carbonic anhydrase 1 (Homo sapiens)?
Result: 7.05
